- test-system: T1, BSA-conjugated Aβ heptapeptide LVFFAEC (reading uncertain; also: BSA conjugate);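 further: ELISA of antibody at 10 or 2 µg/ml binding plate-coated BSA–peptide conjugates, detected with HRP anti-human Ig and TMB colour, mock-treated BSA without peptide as negative control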
- T1 construct: also called Peptide 17-22
- T1 peptide: LVFFAEC([NSMP-BSA])
- experiment-notes: ELISA
Groups on a side chain read outwards from the residue. No end group written: not given here. NSMP = not defined here
Each entry below carries its reported OD ratio 17-22/BSA.
assay-endpoint: OD ratio 17-22/BSA

>>> value("MS-Roche #7.2.H5 Fab (Fab, V domains shown) VH: QVQLVESGGGLVQPGGSLRLSCAASGFTFSSYAMSWVRQAPGKGLEWVSAINATGRSKYYADSVKGRFTISRDNSKNTLYLQMNSLRAEDTAVYYCARGKGNTHKPYGYVRYFDVWGQGTLVTVSS VL: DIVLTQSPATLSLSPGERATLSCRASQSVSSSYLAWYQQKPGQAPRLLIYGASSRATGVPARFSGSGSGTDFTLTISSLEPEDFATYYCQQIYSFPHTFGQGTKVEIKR")
13
>>> value("MS-Roche #7.9.H2 Fab (Fab, V domains shown, assembled) VH: QVQLVESGGGLVQPGGSLRLSCAASGFTFSSYAMSWVRQAPGKGLEWVSAINADGNRKYYADSVKGRFTISRDNSKNTLYLQMNSLRAEDTAVYYCARGKGNTHKPYGYVRYFDVWGQGTLVTVSS VL: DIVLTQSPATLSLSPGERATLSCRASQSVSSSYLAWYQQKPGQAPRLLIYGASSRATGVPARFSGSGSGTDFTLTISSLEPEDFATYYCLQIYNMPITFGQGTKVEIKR")
3
>>> value("MS-Roche #7.12.L1 Fab (Fab, V domains shown) VH: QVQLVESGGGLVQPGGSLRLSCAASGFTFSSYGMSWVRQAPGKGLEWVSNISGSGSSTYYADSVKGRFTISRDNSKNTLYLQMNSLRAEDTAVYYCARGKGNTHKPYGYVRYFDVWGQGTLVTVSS VL: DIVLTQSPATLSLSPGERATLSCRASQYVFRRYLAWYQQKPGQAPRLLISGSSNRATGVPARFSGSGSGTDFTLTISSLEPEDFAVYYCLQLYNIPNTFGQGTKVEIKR")
10
>>> value("MS-Roche #7.9.H1 Fab (Fab, V domains shown, assembled) VH: QVQLVESGGGLVQPGGSLRLSCAASGFTFSSYAMSWVRQAPGKGLEWVSAINANGQRKFYADSVKGRFTISRDNSKNTLYLQMNSLRAEDTAVYYCARGKGNTHKPYGYVRYFDVWGQGTLVTVSS VL: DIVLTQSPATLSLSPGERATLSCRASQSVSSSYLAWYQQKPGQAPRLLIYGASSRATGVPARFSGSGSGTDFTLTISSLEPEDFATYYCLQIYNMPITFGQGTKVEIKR")
7
